Quick reference for kinase still bound, per cent of control among some molecules
# tgt: WEE2 (human)
# assay.info: KINOMEscan competition binding
# condition.parameters: compound 10.0 µM
Report only the number, with the unit % understood.

# compound.smiles, uom, kinase still bound, per cent of control
rows = [
    ("Cc1cc([C@@H](C)Nc2ccccc2C(=O)O)c2nc(N3CCOCC3)cc(=O)n2c1", "%", 100),
    ("CCC(=O)N1CCN(c2ccc(-n3c(=O)ccc4cnc5ccc(-c6cnc7ccccc7c6)cc5c43)cc2C(F)(F)F)CC1", "%", 100),
    ("C=CC(=O)Nc1cccc(Oc2nc(Nc3ccc(N4CCN(C)CC4)cc3OC)ncc2Cl)c1", "%", 100),
    ("COc1cc(C(=O)NC2CCN(C)CC2)ccc1Nc1ncc2c(n1)N(C1CCCC1)CCC(=O)N2C(C)C", "%", 100),
    ("Cc1ccc2nc(NCCN)c3ncc(C)n3c2c1", "%", 100),
]

[Q] Report value only: kinase still bound, per cent of control, WEE2 (human), CN(C)C/C=C/C(=O)Nc1cccc(Nc2ncc3c(n2)N(C)c2ccccc2C(=O)N3C)c1
[A] 97

[Q] Report value only: kinase still bound, per cent of control, WEE2 (human), CCOc1cc2ncc(C#N)c(Nc3ccc(OCc4ccccn4)c(Cl)c3)c2cc1NC(=O)/C=C/CN(C)C
[A] 98

[Q] Report value only: kinase still bound, per cent of control, WEE2 (human), C=CC(=O)Nc1cc(NC(=O)c2ccc(C)c(NC(=O)c3ccno3)c2)cc(C(F)(F)F)c1
[A] 84

* * *

Quick reference for kinase still bound, per cent of control among some molecules
# tgt: NLK (human)
# assay.info: KINOMEscan competition binding
# condition.parameters: compound 10.0 µM
Report only the number, with the unit % understood.

Field: example entries. Status: answers known.
# molecule, tgt, kinase still bound, per cent of control / %
data = [
    ("O=C(O)c1ccc(Nc2ncc3c(n2)-c2ccc(Cl)cc2C(c2c(F)cccc2F)=NC3)cc1", "NLK (human)", 82),
    ("CC[C@@H]1C(=O)N(C)c2cnc(Nc3ccc(C(=O)NC4CCN(C)CC4)cc3OC)nc2N1C1CCCC1", "NLK (human)", 100),
    ("CN(C)C/C=C/C(=O)Nc1cccc(Nc2ncc3c(n2)N(C)c2ccccc2C(=O)N3C)c1", "NLK (human)", 36),
    ("COc1cc(C(=O)NC2CCN(C)CC2)ccc1Nc1ncc2c(n1)N(C1CCCC1)C(C)CC(=O)N2C (stereo not given)", "NLK (human)", 100),
]

[Q] Give reported kinase still bound, per cent of control value for Cn1c(=O)n(-c2ccc(C(C)(C)C#N)cc2)c2c3cc(-c4cnc5ccccc5c4)ccc3ncc21
[A] 100

* * *

# tgt: MKNK1 (human) (UniProt Q9BUB5)
# Sequence (Q9BUB5 whole entry, looked up): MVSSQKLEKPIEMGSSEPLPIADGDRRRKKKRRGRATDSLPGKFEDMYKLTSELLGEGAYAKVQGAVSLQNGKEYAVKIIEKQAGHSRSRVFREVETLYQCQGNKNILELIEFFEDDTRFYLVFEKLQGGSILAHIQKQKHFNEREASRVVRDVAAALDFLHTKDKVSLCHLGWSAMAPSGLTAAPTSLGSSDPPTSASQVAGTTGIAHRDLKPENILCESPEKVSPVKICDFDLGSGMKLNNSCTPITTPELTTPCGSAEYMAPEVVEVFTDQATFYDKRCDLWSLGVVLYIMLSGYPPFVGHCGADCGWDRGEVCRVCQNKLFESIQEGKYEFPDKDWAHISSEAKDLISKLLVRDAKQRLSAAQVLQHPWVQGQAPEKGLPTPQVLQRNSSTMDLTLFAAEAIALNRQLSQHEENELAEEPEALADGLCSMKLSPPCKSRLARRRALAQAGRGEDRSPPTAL
# assay.info: KINOMEscan competition binding
# condition.parameters: compound 10.0 µM
reported.metric: kinase still bound, per cent of control (%)
Report only the number, with the unit % understood.

Field: example entries. Status: answers known.
# compound.smiles, kinase still bound, per cent of control (%)
records = [
    ("O=C(NC1CC1)c1cccc(-c2ccc3c(NC(=O)C4CC4)n[nH]c3c2)c1", 69),
    ("Cc1ccc2nc(NCCN)c3ncc(C)n3c2c1", 100),
    ("Cn1c(=O)n(-c2ccc(C(C)(C)C#N)cc2)c2c3cc(-c4cnc5ccccc5c4)ccc3ncc21", 100),
    ("CCC(=O)N1CCN(c2ccc(-n3c(=O)ccc4cnc5ccc(-c6cnc7ccccc7c6)cc5c43)cc2C(F)(F)F)CC1", 44),
    ("CC[C@@H]1C(=O)N(C)c2cnc(Nc3ccc(C(=O)NC4CCN(C)CC4)cc3OC)nc2N1C1CCCC1", 100),
]

[Q] Give reported kinase still bound, per cent of control value for COc1cc(C(=O)NC2CCN(C)CC2)ccc1Nc1ncc2c(n1)N(C1CCCC1)CCC(=O)N2C(C)C
[A] 100

[Q] Give reported kinase still bound, per cent of control value for O=C(NOC[C@H](O)CO)c1ccc(F)c(F)c1Nc1ccc(I)cc1F
[A] 100

[Q] Give reported kinase still bound, per cent of control value for O=C1Nc2ccc(I)cc2/C1=C/c1cc(Br)c(O)c(Br)c1
[A] 83

[Q] Give reported kinase still bound, per cent of control value for C[C@@H](Oc1cc(-n2cnc3ccc(CN4CCN(C)CC4)cc32)sc1C(N)=O)c1ccccc1C(F)(F)F
[A] 100

[Q] Give reported kinase still bound, per cent of control value for OCCCNc1cc(-c2ccnc(Nc3cccc(Cl)c3)n2)ccn1
[A] 100

[Q] Give reported kinase still bound, per cent of control value for CCOc1cc2ncc(C#N)c(Nc3ccc(OCc4ccccn4)c(Cl)c3)c2cc1NC(=O)/C=C/CN(C)C
[A] 29

[Q] Give reported kinase still bound, per cent of control value for Cc1cc([C@@H](C)Nc2ccccc2C(=O)O)c2nc(N3CCOCC3)cc(=O)n2c1
[A] 92

Origin of the recorded values: the kinase profiling compilation of Christmann-Franck et al. (2016)
